molecular target: HRgpA-6H (Porphyromonas gingivalis) (UniProt P28784); test: ELISA, coated HRgpA-6H
Would you kindly list OD450 nm for each of these binders?
The reply should be a number, written without any unit.

Ask | Please look up its OD450 nm: KB001 mouse Fab VL L55V (Fab, V domains shown) VH: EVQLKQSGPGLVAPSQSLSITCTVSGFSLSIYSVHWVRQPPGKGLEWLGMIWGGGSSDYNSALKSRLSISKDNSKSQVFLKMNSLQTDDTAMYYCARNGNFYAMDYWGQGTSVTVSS VL: QIVLTQSPAIMSASLGERVTMTCTASSSVSSSFLHWYQQKPGSSPQLWIYSTSNVASGVPARFSGSGSGTSYSLTISSMEAEDAATYYCHQYHHSPYIYTFGGGTKLEIK
Reply | 0.706

Ask | Please look up its OD450 nm: KB001 mouse Fab VL S53C (Fab, V domains shown) VH: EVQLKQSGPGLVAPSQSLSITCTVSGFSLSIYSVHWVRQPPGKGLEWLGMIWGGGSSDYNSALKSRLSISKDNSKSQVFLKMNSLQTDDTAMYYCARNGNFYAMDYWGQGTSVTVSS VL: QIVLTQSPAIMSASLGERVTMTCTASSSVSSSFLHWYQQKPGSSPQLWIYSTCNLASGVPARFSGSGSGTSYSLTISSMEAEDAATYYCHQYHHSPYIYTFGGGTKLEIK
Reply | 0.697

Ask | Please look up its OD450 nm: KB001 mouse Fab VL F33H (Fab, V domains shown) VH: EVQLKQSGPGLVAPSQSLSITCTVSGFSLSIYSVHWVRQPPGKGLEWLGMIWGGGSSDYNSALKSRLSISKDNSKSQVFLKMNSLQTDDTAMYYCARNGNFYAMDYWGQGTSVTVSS VL: QIVLTQSPAIMSASLGERVTMTCTASSSVSSSHLHWYQQKPGSSPQLWIYSTSNLASGVPARFSGSGSGTSYSLTISSMEAEDAATYYCHQYHHSPYIYTFGGGTKLEIK
Reply | 0.736

Ask | Please look up its OD450 nm: KB001 mouse Fab VL N54W (Fab, V domains shown) VH: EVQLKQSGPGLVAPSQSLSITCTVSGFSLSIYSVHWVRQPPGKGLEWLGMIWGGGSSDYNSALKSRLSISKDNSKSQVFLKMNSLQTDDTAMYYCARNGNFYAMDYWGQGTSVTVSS VL: QIVLTQSPAIMSASLGERVTMTCTASSSVSSSFLHWYQQKPGSSPQLWIYSTSWLASGVPARFSGSGSGTSYSLTISSMEAEDAATYYCHQYHHSPYIYTFGGGTKLEIK
Reply | 0.646

Ask | Please look up its OD450 nm: KB001 mouse Fab VH K64G (Fab, V domains shown) VH: EVQLKQSGPGLVAPSQSLSITCTVSGFSLSIYSVHWVRQPPGKGLEWLGMIWGGGSSDYNSALGSRLSISKDNSKSQVFLKMNSLQTDDTAMYYCARNGNFYAMDYWGQGTSVTVSS VL: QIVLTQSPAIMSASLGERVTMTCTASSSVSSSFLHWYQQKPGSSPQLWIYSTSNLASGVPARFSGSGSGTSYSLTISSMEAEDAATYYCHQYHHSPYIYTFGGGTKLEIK
Reply | 0.806
